Tested on: Enterococcus faecium
measurementProtocol: Antibacterial activity against vancomycin-resistant Enterococcus faecium ATCC 700221 assessed as prevention of visible bacterial growth incubated for 18 hrs by broth dilution method
Assay type: functional
testConditions: ATCC 700221, 18 h
Please respond with Yes when measured MIC is strictly beneath 0.1 µg/mL, and with No in all other cases.

>>> print(df.to_string())
                            substancesmiles          testedsystem  assignedclass
0  COc1cc2oc3c(c(=O)c2cc1O)C(=O)C1=C(CCc2cc4c(c(O)c21)C(=O)N1CCO[C@]1(C)C4)C3=O  Enterococcus faecium             No
1  COc1cc2oc3c(c(=O)c2cc1OC)C(=O)C1=C(CCc2cc4c(c(O)c21)C(=O)N1CCO[C@]1(C)C4)C3=O  Enterococcus faecium            Yes
2  C[C@H]1COc2c(N3CCN(C)CC3)c(F)cc3c(=O)c(C(=O)O)cn1c23.C[C@H]1COc2c(N3CCN(C)CC3)c(F)cc3c(=O)c(C(=O)O)cn1c23.O  Enterococcus faecium             No
3  COc1cc2oc3c(O)c4c(c(O)c3c(=O)c2cc1O)-c1c(cc2c(c1O)C(=O)N1CCO[C@]1(C)C2)CC4  Enterococcus faecium            Yes
4  COc1cc2oc3c(c(=O)c2cc1OC)C(=O)c1c(ccc2cc4c(c(O)c12)C(=O)N1CCO[C@]1(C)C4)C3=O  Enterococcus faecium             No
5  COc1cc2oc3c(O)c4c(c(O)c3c(=O)c2cc1OC)-c1c(cc2c(c1O)C(=O)N1CCO[C@]1(C)C2)CC4  Enterococcus faecium             No

---

Overview of recorded log10(MIC) for various molecules
Tested on: Staphylococcus aureus
measurementProtocol: Antibacterial activity against methicillin-resistant Staphylococcus aureus ATCC 33591 assessed as prevention of visible bacterial growth incubated for 18 hrs by broth dilution method
Type: functional
testConditions: ATCC 33591, 18 h
propertyLabel: log10(MIC) (log10 of the value in µg/mL)

molecule	quantitativeResult
COc1cc2oc3c(c(=O)c2cc1OC)C(=O)c1c(ccc2cc4c(c(O)c12)C(=O)N1CCO[C@]1(C)C4)C3=O	-0.30
COc1cc2oc3c(c(=O)c2cc1O)C(=O)C1=C(CCc2cc4c(c(O)c21)C(=O)N1CCO[C@]1(C)C4)C3=O	-0.60
COc1cc2oc3c(O)c4c(c(O)c3c(=O)c2cc1OC)-c1c(cc2c(c1O)C(=O)N1CCO[C@]1(C)C2)CC4	-1.22
COc1cc2oc3c(O)c4c(c(O)c3c(=O)c2cc1O)-c1c(cc2c(c1O)C(=O)N1CCO[C@]1(C)C2)CC4	-1.80
C[C@H]1COc2c(N3CCN(C)CC3)c(F)cc3c(=O)c(C(=O)O)cn1c23.C[C@H]1COc2c(N3CCN(C)CC3)c(F)cc3c(=O)c(C(=O)O)cn1c23.O [LEVOFLOXACIN]	-0.92
COc1cc2oc3c(c(=O)c2cc1OC)C(=O)C1=C(CCc2cc4c(c(O)c21)C(=O)N1CCO[C@]1(C)C4)C3=O	-1.22
